The entries below come with measured fold change of affinity values attached.
# experimental-system: Human CD137 ECD (human)
# Sequence (chain, as listed by the source limits assumed): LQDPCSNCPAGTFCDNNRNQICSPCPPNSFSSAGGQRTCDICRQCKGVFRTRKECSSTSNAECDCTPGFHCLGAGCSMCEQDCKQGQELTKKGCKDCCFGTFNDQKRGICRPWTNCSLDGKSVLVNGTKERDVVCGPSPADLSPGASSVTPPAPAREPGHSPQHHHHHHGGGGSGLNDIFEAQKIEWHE
# experiment-summary: Biacore SPR, vs parent H183/L072
recorded-metric: fold change of affinity (fold)

binder="H183/L072 VL H34E (antibody, name in Kabat numbering, V domains shown) VH: QVQLVESGGGLVQPGRSLRLSCAASGFTFSNAWMHWVRQAPGKGLEWVAQIKDKGNAYAAYYAPSVKGRFTISRDDSKNSIYLQMNSLKTEDTAVYYCHYVHYASASTVLPAFGVDAWGQGTTVTVSS VL: DIVMTQSPLSLPVTPGEPASISCQASQELVHMNRNTYLEWYQQKPGQAPRLLIYKVSNRFPGVPDRFSGSGSGTDFTLKISRVEAEDVGVYYCAQGTSVPFTFGQGTKLEIK" recorded_metric="fold change of affinity" measurement_unit=fold recorded_value=0
binder="H183/L072 VL Y32K (antibody, name in Kabat numbering, V domains shown) VH: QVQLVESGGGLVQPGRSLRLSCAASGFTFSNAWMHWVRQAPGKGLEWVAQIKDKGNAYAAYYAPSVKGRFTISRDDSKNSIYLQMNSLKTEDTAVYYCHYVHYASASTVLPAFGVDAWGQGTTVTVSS VL: DIVMTQSPLSLPVTPGEPASISCQASQELVHMNRNTKLHWYQQKPGQAPRLLIYKVSNRFPGVPDRFSGSGSGTDFTLKISRVEAEDVGVYYCAQGTSVPFTFGQGTKLEIK" recorded_metric="fold change of affinity" measurement_unit=fold recorded_value=0
binder="H183/L072 VL A25F (antibody, name in Kabat numbering, V domains shown) VH: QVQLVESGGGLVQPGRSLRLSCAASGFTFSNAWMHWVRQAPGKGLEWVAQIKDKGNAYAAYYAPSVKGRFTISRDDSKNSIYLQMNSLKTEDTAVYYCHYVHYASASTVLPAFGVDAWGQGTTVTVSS VL: DIVMTQSPLSLPVTPGEPASISCQFSQELVHMNRNTYLHWYQQKPGQAPRLLIYKVSNRFPGVPDRFSGSGSGTDFTLKISRVEAEDVGVYYCAQGTSVPFTFGQGTKLEIK" recorded_metric="fold change of affinity" measurement_unit=fold recorded_value=0
binder="H183/L072 VL A25D (antibody, name in Kabat numbering, V domains shown) VH: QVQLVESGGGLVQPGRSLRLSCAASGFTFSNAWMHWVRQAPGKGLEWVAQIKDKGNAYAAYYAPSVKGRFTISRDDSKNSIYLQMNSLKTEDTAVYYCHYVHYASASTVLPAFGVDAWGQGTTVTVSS VL: DIVMTQSPLSLPVTPGEPASISCQDSQELVHMNRNTYLHWYQQKPGQAPRLLIYKVSNRFPGVPDRFSGSGSGTDFTLKISRVEAEDVGVYYCAQGTSVPFTFGQGTKLEIK" recorded_metric="fold change of affinity" measurement_unit=fold recorded_value=0
binder="H183/L072 VL H34G (antibody, name in Kabat numbering, V domains shown) VH: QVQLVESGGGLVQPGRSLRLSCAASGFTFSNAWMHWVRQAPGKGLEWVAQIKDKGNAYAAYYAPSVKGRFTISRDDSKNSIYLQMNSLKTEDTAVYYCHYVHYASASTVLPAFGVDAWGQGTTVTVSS VL: DIVMTQSPLSLPVTPGEPASISCQASQELVHMNRNTYLGWYQQKPGQAPRLLIYKVSNRFPGVPDRFSGSGSGTDFTLKISRVEAEDVGVYYCAQGTSVPFTFGQGTKLEIK" recorded_metric="fold change of affinity" measurement_unit=fold recorded_value=0
